Data provenance is patent US20130273029A1.

Overview of recorded MCF7 pHER3 IC50 for various binders
target: Human HER3, endogenous, on human cancer cell lines (SK-Br-3, MCF7, BT-474) (human, UniProt P21860 20-1342); test: cell-based or functional assay
Sequence (P21860 20-1342): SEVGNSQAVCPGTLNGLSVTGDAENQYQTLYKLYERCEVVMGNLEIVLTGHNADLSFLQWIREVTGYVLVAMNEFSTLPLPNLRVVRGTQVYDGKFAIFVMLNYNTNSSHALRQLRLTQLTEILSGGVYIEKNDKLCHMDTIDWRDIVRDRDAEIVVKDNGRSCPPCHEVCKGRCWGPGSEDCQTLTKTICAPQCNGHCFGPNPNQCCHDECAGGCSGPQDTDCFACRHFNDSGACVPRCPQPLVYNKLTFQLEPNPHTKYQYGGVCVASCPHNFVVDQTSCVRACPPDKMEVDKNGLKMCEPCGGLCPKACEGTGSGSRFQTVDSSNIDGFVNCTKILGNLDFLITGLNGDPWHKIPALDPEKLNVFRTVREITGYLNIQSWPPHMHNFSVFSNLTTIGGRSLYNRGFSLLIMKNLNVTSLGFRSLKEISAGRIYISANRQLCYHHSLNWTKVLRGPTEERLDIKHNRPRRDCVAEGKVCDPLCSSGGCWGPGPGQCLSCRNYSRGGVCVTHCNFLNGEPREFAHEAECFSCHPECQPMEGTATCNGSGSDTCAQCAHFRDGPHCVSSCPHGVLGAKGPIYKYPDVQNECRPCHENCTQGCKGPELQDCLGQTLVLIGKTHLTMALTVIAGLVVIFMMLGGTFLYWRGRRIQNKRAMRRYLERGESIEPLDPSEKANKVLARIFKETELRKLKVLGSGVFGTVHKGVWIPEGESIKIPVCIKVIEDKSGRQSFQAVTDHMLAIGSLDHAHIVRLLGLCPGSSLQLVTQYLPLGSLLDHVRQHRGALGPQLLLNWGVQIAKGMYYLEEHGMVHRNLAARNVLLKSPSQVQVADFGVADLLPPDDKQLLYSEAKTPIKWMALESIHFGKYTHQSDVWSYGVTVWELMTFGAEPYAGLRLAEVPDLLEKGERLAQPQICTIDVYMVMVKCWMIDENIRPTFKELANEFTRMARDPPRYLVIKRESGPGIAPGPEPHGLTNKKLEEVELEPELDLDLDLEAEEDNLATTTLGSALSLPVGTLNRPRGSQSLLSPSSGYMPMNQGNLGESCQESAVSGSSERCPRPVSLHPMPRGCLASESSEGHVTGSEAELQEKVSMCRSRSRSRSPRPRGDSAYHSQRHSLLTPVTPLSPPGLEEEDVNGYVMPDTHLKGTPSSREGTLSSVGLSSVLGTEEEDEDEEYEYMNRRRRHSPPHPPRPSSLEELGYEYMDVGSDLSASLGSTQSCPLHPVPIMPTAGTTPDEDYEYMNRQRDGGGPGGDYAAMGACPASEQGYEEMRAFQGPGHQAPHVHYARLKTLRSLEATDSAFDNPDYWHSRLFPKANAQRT
Only the number, expressed in pM, is required.

binder="MOR12923 (antibody, human IgG1, kappa, V domains shown) VH: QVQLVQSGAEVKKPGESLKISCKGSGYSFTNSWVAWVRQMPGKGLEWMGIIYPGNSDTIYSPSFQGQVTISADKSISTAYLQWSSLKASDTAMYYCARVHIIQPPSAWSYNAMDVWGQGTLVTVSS VL: DIQMTQSPSSLSASVGDRVTITCRASQSISTYLNWYQQKPGKAPKLLIFGASNLQSGVPSRFSGSGSGTDFTLTISSLQPEDFATYYCQQSMYLPFTFGQGTKVEIKR" units_label=pM meas_value=540

INPUT: Suppose we examine the binder MOR13868 (antibody, human IgG1, kappa, V domains shown, tested as IgG) VH: QVQLVQSGAEVKKPGESLKISCKGSGYSFSNYWIAWVRQMPGKGLEWMGIIYPGLSDTIYSPSFQGQVTISADKSISTAYLQWSSLKASDTAMYYCARVHIIQPPSAWSYNAMDVWGQGTLVTVSS VL: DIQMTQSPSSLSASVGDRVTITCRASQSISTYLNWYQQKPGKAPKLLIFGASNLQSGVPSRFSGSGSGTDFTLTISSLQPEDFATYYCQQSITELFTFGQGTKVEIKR ; what MCF7 pHER3 IC50 value has been reported?
OUTPUT: 189

INPUT: For the binder shown here, MOR13869 (antibody, human IgG1, kappa, V domains shown, tested as IgG) VH: QVQLVQSGAEVKKPGESLKISCKGSGYSFSNYWIAWVRQMPGKGLEWMGIIYPGGSDTIYSPSFQGQVTISADKSISTAYLQWSSLKASDTAMYYCARVHIIQPPSAWSYNAMDVWGQGTLVTVSS VL: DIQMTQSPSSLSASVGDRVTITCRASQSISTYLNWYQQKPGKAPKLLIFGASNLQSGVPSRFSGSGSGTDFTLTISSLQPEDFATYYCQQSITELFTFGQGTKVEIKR , give the reported MCF7 pHER3 IC50.
OUTPUT: 427
